ASSAY_PROTOCOL: Metabolic stability in human hepatic microsome
Assay type: in vitro ADME
SETTINGS: microsomes, pH 7.4; human hepatic microsome, NADPH(+); read-out: CL NADPH(+)
Starred links: 1 amine or outer side, 2 acyl side, 3 side chain; linkers in the order of their positions; H or OH if unused. Positions of bridges follow the written chain, without caps; N, C: chain ends. Non-standard residues stand in square brackets, D forms with d. Residues, ends and D or L forms follow the SMILES beside them. *: point of attachment. NMeF = CN[C@@H](Cc1ccccc1)C(=O)O; NMeβAla = CN(CCC(=O)[*:2])[*:1]; NMeL = CN[C@@H](CC(C)C)C(=O)O; NMeA = CN[C@@H](C)C(=O)O; Piperidide = C1CCN(*)CC1
# microsomal CLint at 1 uM per record follows
Report the figure in µL/min/mg without appending any unit label.

Prompt: Give the measured microsomal CLint at 1 uM of CC(C)C[C@H]1C(=O)N(C)[C@@H](C)C(=O)N[C@@H]([C@@H](C)O)C(=O)N(C)[C@@H](C)C(=O)N[C@H](C(=O)N(C)[C@@H](Cc2ccccc2)C(=O)N(C)[C@@H](Cc2ccccc2)C(=O)N[C@@H](C)C(=O)N2CCCCC2)CC(=O)N(C)CCC(=O)N(C)[C@@H](Cc2ccccc2)C(=O)N(C)[C@@H](CC(C)C)C(=O)N(C)[C@@H](C)C(=O)N[C@@H](C(C)C)C(=O)N1C [DP-500] ([NMeβAla][NMeF][NMeL][NMeA]V[NMeL][NMeA]T[NMeA]D[NMeF][NMeF]A-Piperidide; lactam N-10) .
Completion: 28

Prompt: Likewise for CC[C@H](C)[C@@H]1NC(=O)[C@H](CC(C)C)N(C)C(=O)[C@H](CC(C)C)N(C)C(=O)CCN(C)C(=O)C[C@@H](C(=O)N2CCCCC2)NC(=O)[C@H](CC(C)C)N(C)C(=O)[C@H](CC(C)C)N(C)C(=O)[C@H](Cc2ccccc2)N(C)C(=O)[C@H]([C@@H](C)O)NC(=O)[C@H](Cc2ccccc2)N(C)C1=O [DP-429] ([NMeβAla][NMeL][NMeL]I[NMeF]T[NMeF][NMeL][NMeL]D-Piperidide; lactam N-10) ?
Completion: 115

The values you see were collected from patent US9409952B2.
